Give MIC for every item shown.
- Test system: Staphylococcus aureus
- ASSAY_COMMENT: Antimicrobial activity against methicillin-resistant Staphylococcus aureus 003
- Type: functional

Prompt line: Which MIC value is on record for CC1(C)CC[C@]2(C(=O)O)CC[C@]3(C)C(=CC[C@@H]4[C@@]5(C)CC[C@H](OCC(O)CCCCN)C(C)(C)[C@@H]5CC[C@]43C)[C@@H]2C1 (stereo partly specified) ?
Response line: 4 µg/mL

Prompt line: Another molecule to check: CCCC(=O)O[C@H]1CC[C@]2(C)[C@H]3CC=C4[C@@H]5CC(C)(C)CC[C@]5(C(=O)O)CC[C@@]4(C)[C@]3(C)CC[C@H]2C1(C)C
Response line: > 64 µg/mL

Prompt line: Another molecule to check: CC1(C)CC[C@]2(C(=O)O)CC[C@]3(C)C(=CC[C@@H]4[C@@]5(C)CC[C@H](OCC(O)CCCCCCCCN)C(C)(C)[C@@H]5CC[C@]43C)[C@@H]2C1 (stereo partly specified)
Response line: 8 µg/mL

Prompt line: Another molecule to check: CC1(C)CC[C@]2(C(=O)O)CC[C@]3(C)C(=CC[C@@H]4[C@@]5(C)CC[C@H](OC(=O)c6ccccc6)C(C)(C)[C@@H]5CC[C@]43C)[C@@H]2C1
Response line: > 64 µg/mL

Prompt line: Another molecule to check: CCCCCOC(=O)[C@]12CCC(C)(C)C[C@H]1C1=CC[C@@H]3[C@@]4(C)CC[C@H](O)C(C)(C)[C@@H]4CC[C@@]3(C)[C@]1(C)CC2
Response line: > 64 µg/mL

Prompt line: Another molecule to check: CC(=O)O[C@H]1CC[C@]2(C)[C@H]3CC=C4[C@@H]5CC(C)(C)CC[C@]5(C(=O)N(C)C)CC[C@@]4(C)[C@]3(C)CC[C@H]2C1(C)C
Response line: > 64 µg/mL

* * *

Give MIC for every item shown.
- System: Candida albicans
- ASSAY_COMMENT: Antimicrobial activity against fluconazole-resistant Candida albicans
- Format: functional
Hi! Could you send only the number? It should be in µg/mL, unit omitted.

Prompt line: Which MIC value is on record for C[C@@H]1[C@H](O)[C@@H](C)/C=C/C=C/C=C/C=C/C=C/C=C/C=C/[C@H](O[C@@H]2O[C@H](C)[C@@H](O)[C@H](N)[C@@H]2O)C[C@@H]2O[C@](O)(C[C@@H](O)C[C@@H](O)[C@H](O)CC[C@@H](O)C[C@@H](O)CC(=O)O[C@H]1C)C[C@H](O)[C@H]2C(=O)O ?
Response line: 1

Prompt line: Another molecule to check: CC1(C)CC[C@]2(C(=O)O)CC[C@]3(C)C(=CC[C@@H]4[C@@]5(C)CC[C@H](OC(=O)c6ccccc6C(=O)O)C(C)(C)[C@@H]5CC[C@]43C)[C@@H]2C1
Response line: 8

* * *

- System: Staphylococcus aureus
- ASSAY_COMMENT: Antimicrobial activity against Staphylococcus aureus 31
- Type: functional
MEASURED_QUANTITY: MIC

Prompt line: Which MIC value is on record for CC(=O)O[C@H]1CC[C@]2(C)[C@H]3CC=C4[C@@H]5CC(C)(C)CC[C@]5(C(=O)NCCCCNC(=N)N)CC[C@@]4(C)[C@]3(C)CC[C@H]2C1(C)C ?
Response line: 4 µg/mL

Prompt line: Another molecule to check: CC1(C)CC[C@]2(C(=O)O)CC[C@]3(C)C(=CC[C@@H]4[C@@]5(C)CC[C@H](OC(=O)c6ccccc6)C(C)(C)[C@@H]5CC[C@]43C)[C@@H]2C1
Response line: > 64 µg/mL

Prompt line: Another molecule to check: CCCC(=O)O[C@H]1CC[C@]2(C)[C@H]3CC=C4[C@@H]5CC(C)(C)CC[C@]5(C(=O)O)CC[C@@]4(C)[C@]3(C)CC[C@H]2C1(C)C
Response line: > 64 µg/mL

Prompt line: Another molecule to check: CCCCCOC(=O)[C@]12CCC(C)(C)C[C@H]1C1=CC[C@@H]3[C@@]4(C)CC[C@H](O)C(C)(C)[C@@H]4CC[C@@]3(C)[C@]1(C)CC2
Response line: > 64 µg/mL

Prompt line: Another molecule to check: CCCCCCCCCCCCCOC(=O)[C@]12CCC(C)(C)C[C@H]1C1=CC[C@@H]3[C@@]4(C)CC[C@H](O)C(C)(C)[C@@H]4CC[C@@]3(C)[C@]1(C)CC2
Response line: > 64 µg/mL

Prompt line: Another molecule to check: CC1(C)CC[C@]2(C(=O)O)CC[C@]3(C)C(=CC[C@@H]4[C@@]5(C)CC[C@H](OCC(O)CCCCN)C(C)(C)[C@@H]5CC[C@]43C)[C@@H]2C1 (stereo partly specified)
Response line: 8 µg/mL

Value source: ChEMBL document CHEMBL6127107
